Measured IC50 on Seed linoleate 13S-lipoxygenase-1 (Glycine max, UniProt P08170) follows.
Sequence (P08170 whole entry): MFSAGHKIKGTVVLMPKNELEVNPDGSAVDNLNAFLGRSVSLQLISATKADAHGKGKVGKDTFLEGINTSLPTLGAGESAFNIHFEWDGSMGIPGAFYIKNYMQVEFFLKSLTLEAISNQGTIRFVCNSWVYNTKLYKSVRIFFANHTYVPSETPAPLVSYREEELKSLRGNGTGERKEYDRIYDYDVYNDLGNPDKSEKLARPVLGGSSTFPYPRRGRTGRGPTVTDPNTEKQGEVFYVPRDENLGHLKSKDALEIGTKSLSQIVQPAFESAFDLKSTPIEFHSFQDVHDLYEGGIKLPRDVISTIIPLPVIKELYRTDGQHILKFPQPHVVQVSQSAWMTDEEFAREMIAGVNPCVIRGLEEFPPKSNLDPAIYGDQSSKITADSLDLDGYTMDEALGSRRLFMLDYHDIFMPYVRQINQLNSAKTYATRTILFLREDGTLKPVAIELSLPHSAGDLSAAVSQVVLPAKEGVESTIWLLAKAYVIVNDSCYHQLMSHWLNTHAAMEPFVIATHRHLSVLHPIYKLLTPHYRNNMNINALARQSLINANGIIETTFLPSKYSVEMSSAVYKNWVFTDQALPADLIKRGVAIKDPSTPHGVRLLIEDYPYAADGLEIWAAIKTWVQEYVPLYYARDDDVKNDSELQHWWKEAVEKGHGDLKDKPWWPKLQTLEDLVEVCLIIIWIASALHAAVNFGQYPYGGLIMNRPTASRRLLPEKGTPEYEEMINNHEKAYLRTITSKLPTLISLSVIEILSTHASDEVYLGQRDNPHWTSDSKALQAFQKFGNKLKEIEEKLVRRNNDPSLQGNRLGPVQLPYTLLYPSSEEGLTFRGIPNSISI
Quantity Measured: IC50 (µM)

COc1cc(/C=C/C(=O)c2c(C)[n+]([O-])c3ccc(F)cc3[n+]2[O-])ccc1O; 85

P = Cc1c(C(=O)/C=C/c2ccc3c(c2)OCO3)[n+]([O-])c2ccccc2[n+]1[O-]
Q = COc1cc(C2CC(c3c(C)[n+]([O-])c4ccc(F)cc4[n+]3[O-])=NN2)cc(OC)c1OC (centres undefined)
INPUT: Min IC50? P | Q Please reply using the label of the selected record.
OUTPUT: P
(P: 31 µM, Q: 70 µM)

Data provenance: ChEMBL document CHEMBL1138237
